ASSAY_OVERVIEW: Drug repurposing screens with cells derived from glioblastoma tumor samples (AID 1345199); also: % is scaled to controls: 0 for no effect and ±100 for the full control effect
APPLIED_CONDITIONS: GBM patient neurospheres viability, ATP luminescence, 48 h; at 21.2 µM (top of the series); tumour line D
Records with an inconclusive call do not appear.
// activity, negative = cell killing lookup, one value per entry
Answer with a number only, understood to be in %.

1) C[C@@H]1C[C@H]2[C@@H]3C[C@H](F)C4=CC(=O)C=C[C@]4(C)[C@@]3(F)[C@@H](O)C[C@]2(C)[C@@]1(O)C(=O)CO
-7.98
2) CCOc1ccc2ccccc2c1C(=O)N[C@@H]1C(=O)N2[C@@H]1SC(C)(C)[C@@H]2C(=O)O
-26.3
3) Cn1cc[nH]c1=S
-12.3

Proceed to the following item.
[Q] Record request: activity, negative = cell killing value, item CN1CCOC(c2ccccc2)c2ccccc2C1 (centres undefined)
[A] -4.89
